target_or_system: Bifunctional 3'-5' exonuclease/ATP-dependent helicase WRN (Homo sapiens) (UniProt Q14191)
Sequence (Q14191 whole entry, looked up): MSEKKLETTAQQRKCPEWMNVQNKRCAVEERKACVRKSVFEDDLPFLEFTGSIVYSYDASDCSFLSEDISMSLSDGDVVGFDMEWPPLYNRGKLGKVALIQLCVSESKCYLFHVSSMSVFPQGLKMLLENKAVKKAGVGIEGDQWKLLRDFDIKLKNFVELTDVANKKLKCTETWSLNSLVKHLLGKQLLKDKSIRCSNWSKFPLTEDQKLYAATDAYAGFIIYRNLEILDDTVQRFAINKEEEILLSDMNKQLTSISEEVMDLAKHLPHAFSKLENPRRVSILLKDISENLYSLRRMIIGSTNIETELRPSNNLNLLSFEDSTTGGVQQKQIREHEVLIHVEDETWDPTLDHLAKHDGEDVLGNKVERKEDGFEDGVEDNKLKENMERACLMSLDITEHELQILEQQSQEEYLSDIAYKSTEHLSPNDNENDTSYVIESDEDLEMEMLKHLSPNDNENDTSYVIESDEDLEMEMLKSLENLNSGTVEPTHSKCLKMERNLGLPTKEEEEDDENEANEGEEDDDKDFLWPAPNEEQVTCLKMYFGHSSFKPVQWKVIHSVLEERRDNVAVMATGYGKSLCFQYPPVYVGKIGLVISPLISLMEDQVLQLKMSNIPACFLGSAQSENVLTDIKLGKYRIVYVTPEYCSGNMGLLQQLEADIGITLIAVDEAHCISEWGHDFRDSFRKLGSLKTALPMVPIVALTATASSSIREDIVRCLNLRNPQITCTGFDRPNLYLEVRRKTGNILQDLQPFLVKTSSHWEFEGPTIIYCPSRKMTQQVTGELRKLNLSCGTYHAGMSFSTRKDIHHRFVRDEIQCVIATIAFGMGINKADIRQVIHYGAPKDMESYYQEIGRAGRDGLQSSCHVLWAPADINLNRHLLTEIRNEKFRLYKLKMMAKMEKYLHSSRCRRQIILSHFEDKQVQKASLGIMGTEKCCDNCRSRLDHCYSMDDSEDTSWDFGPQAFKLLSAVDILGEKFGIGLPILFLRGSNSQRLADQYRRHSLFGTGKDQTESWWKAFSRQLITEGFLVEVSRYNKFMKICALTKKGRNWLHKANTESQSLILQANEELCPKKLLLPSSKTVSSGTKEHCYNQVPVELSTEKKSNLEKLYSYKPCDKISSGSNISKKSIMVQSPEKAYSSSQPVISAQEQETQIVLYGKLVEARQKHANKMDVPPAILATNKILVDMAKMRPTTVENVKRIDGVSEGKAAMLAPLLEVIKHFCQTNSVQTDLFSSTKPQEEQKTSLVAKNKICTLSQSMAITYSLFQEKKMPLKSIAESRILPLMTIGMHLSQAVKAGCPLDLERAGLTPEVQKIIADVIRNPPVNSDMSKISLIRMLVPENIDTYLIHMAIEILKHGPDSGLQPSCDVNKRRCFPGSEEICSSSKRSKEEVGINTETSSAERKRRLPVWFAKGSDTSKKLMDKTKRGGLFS
test_name: qHTS for Inhibitors of WRN Helicase; also: nearly all actives have a fitted effect of over 55% in size
condition_parameters: WRN helicase unwinding, fluorescent forked duplex, kinetic; series mostly up to 114 µM
Among all 360,000 compounds or so, about 1,700 (0.47%) were called active. Another 2% or so got no clear call; they are omitted. Calls follow the shape of the dose curve; as a rule, active = well fitted inhibition curve with a large enough effect; inconclusive = small, poorly fitted or top-dose-only effect; inactive = no such curve, though single readings can be large or run the other way. The sample holds actives, similar compounds and a random draw of the others, so the mix is not that of the screen.
Give your call using only these classes: active, inactive

Please let me know the test result on file for O=C(C1CCN(CC2CCCCC2)CC1)N1CCCC1 .
inactive

Please let me know the test result on file for OC(c1ccccc1)(c1ccccc1)C1CCN(CCCOc2ccccc2)CC1 .
inactive

Please let me know the test result on file for Cc1ccc(CCNC(=O)CN2C(=O)CSc3ccc(S(=O)(=O)N4CCOCC4)cc32)cc1 .
inactive

Please let me know the test result on file for CC(C(=O)NC1CCS(=O)(=O)C1)N1C(=O)/C(=C/c2ccc(Cl)cc2)SC1=S (configuration not stated) .
inactive

Please let me know the test result on file for Cc1ccccc1-c1nc(NC(C)C)nc2cc(-c3ccccc3)sc12 .
inactive

Please let me know the test result on file for CCN(CC)C(=O)C1=C(C)N(Cc2ccc(OC)cc2)C(=O)C(CC(=O)NCc2ccco2)C1 (configuration not stated) .
inactive

Please let me know the test result on file for C=C(C)C(=O)Nc1cccc(C2=NOC3(C2)C[C@H](C(N)=O)N(C(=O)C(c2ccccc2)c2ccccc2)C3)c1 (some centres not stated) .
active

Please let me know the test result on file for Nc1ccc2nc3c(=O)[nH]c(=S)[nH]c3nc2c1 .
active

Please let me know the test result on file for O=C(CN1C(=O)c2cccc3cccc(c23)C1=O)N1CCCCC1 .
inactive

Please let me know the test result on file for C[N+](C)(CCCCCC[N+](C)(C)CCCN1C(=O)c2cccc3cccc(c23)C1=O)CCCN1C(=O)c2cccc3cccc(c23)C1=O .
active

Please let me know the test result on file for COC(=O)C[C@H]1C=C[C@H](NC(=O)c2ccc(F)cc2)[C@@H](CO)O1 .
inactive

Please let me know the test result on file for CC1CCCN(CCCNC(=O)CN2C(=O)COc3ccc(S(=O)(=O)N4CCOCC4)cc32)C1 (configuration not stated) .
inactive

----------
target_or_system: Bifunctional 3'-5' exonuclease/ATP-dependent helicase WRN (Homo sapiens) (UniProt Q14191)
test_name: qHTS for Inhibitors of WRN Helicase; also: nearly all actives have a fitted effect of over 55% in size
condition_parameters: WRN helicase unwinding, fluorescent forked duplex, kinetic; series mostly up to 114 µM
The whole screen tested about 360,000 compounds, of which about 1,700 (0.47%) were called active. Inconclusive results (about 2%) are left out. Calls follow the shape of the dose curve; as a rule, active = well fitted inhibition curve with a large enough effect; inconclusive = small, poorly fitted or top-dose-only effect; inactive = no such curve, though single readings can be large or run the other way. The full list was thinned out, with actives kept by preference.
Give your call using only these classes: true (1) = active, false (0) = inactive

Please let me know the test result on file for CN(C(=O)COC(=O)c1cc(-c2ccco2)nc2ccccc12)C1CCS(=O)(=O)C1 (stereo not drawn) .
true (1)

Please let me know the test result on file for COC(=O)C1=C(C(=O)OC)[C@@H]2N(C)c3ccccc3[C@@]23C[C@@H](C(=O)OC)N(C(=O)c2ccco2)C3=N1 .
false (0)

Please let me know the test result on file for C[C@@H]1CN([C@H](C)CO)C(=O)CCCn2cc(nn2)CO[C@H]1CN(C)S(=O)(=O)c1ccc(Oc2ccccc2)nc1 .
false (0)
